Molecular target: MaxL homodimer (Homo sapiens, UniProt P61244 1-160)
Sequence (P61244 whole entry): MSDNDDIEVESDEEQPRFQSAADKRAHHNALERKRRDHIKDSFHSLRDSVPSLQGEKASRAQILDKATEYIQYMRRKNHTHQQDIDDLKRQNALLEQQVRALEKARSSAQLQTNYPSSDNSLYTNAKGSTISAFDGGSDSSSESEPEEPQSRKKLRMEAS
Assay: universal protein-binding microarray (PBM); PBS-based mixture, 10 nM His-tagged protein dimer, 2% milk, 200 ng/uL BSA, 50 ng/uL salmon testes DNA, 0.02% TX-100; detection with Alexa 488 anti-His antibody;; high values mean tight binding;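 further: fluorescence intensity normalized to that of the highest-ranked 8-mer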
Settings: protein: recombinant; tags: C-terminal His-tag (pET21a); chain copies: 2; dsDNA, one strand shown
Over roughly 33,000 sequences, “normalized occupancy” has its median near 0.075; the highest 2% begin near 0.095. Shown is part of a subset that was picked to be rich in the highest values.
Measure name: binding signal (normalized occupancy)
Expressed in normalized occupancy, but write only the number.

Quick note, binding signal for CATGCTAA landed at 0.091

Reported binding signal for AATGCTAC was 0.0772

Reported binding signal ( CGATATGC ) = 0.0806

Documented binding signal of ATGCGCAT : 0.102

The value of binding signal measured for the sequence GAGGCAGA turned out to be 0.0719

Per the record, GCATATCC has binding signal of 0.0834

Per the records, this sequence ( CCATATAG ) has binding signal equal to 0.087

Note to self: binding signal recorded for ACACGCAC was 0.0931

The measured binding signal associated with ATGCGCAC reads 0.0828

GET /value?item= GACATTGA &field=binding signal returns 0.078

// field: binding signal; key: ATACGCAG ; value = 0.0734

Notebook: CCATATCG , binding signal read as 0.083

In plain terms, ATACGCAC has a documented binding signal of 0.0799

GET /value?item= CATGCTAG &field=binding signal returns 0.106

binding signal in this record for CAAGGGAA : 0.0781

The value of binding signal measured for the sequence CTATGGGC turned out to be 0.0769

Looking up CCACATCA , I found its binding signal recorded as 0.0798

# binding signal (sequence: CTAGCACA ) is 0.0827

Per the record, ATTCCATC has binding signal of 0.0772

Input CTATATGC . Output binding signal: 0.0831

For this sequence ( CATGCTAC ), measured binding signal is 0.0953

Measured binding signal, AGTCACAA : 0.0805

###

Target: MaxL homodimer (Homo sapiens, UniProt P61244 1-160)
Test: universal protein-binding microarray (PBM); PBS-based mixture, 10 nM His-tagged protein dimer, 2% milk, 200 ng/uL BSA, 50 ng/uL salmon testes DNA, 0.02% TX-100; detection with Alexa 488 anti-His antibody;; high values mean tight binding;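 further: fluorescence intensity normalized to that of the highest-ranked 8-mer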
Conditions: protein: recombinant; tags: C-terminal His-tag (pET21a); chain copies: 2; dsDNA, one strand shown
In all, about 33,000 sequences were measured (“normalized occupancy”: median about 0.075, highest 2% from about 0.095 on). This is one part of a sample in which the highest values are shown more often than they occur.
# strict inequality: binding signal < 0.09 normalized occupancy yields Y, everything else yields N

Q: State whether 0.09 normalized occupancy exceeds binding signal recorded for AAATGTGC .
Ans: N

Q: Threshold test, binding signal < 0.09 normalized occupancy: ATGGACGG
Ans: Y

Q: Determine if TATGCTAA shows binding signal strictly lower than 0.09 normalized occupancy.
Ans: Y

Q: API: query returns whether the sequence falls strictly under 0.09 normalized occupancy in binding signal. Query: AATGAGGC
Ans: Y

Q: Would you kindly verify if binding signal of AACAATAC is strictly less than 0.09 normalized occupancy?
Ans: Y

Q: State whether 0.09 normalized occupancy exceeds binding signal recorded for AACCTAAC .
Ans: Y

Q: Would you kindly verify if binding signal of ATACGTAT is strictly less than 0.09 normalized occupancy?
Ans: Y

Q: Below 0.09 normalized occupancy on binding signal? Entry ATAATGAC
Ans: Y

Q: Quick check: does CCATGTAA have binding signal under 0.09 normalized occupancy?
Ans: Y

Q: Lab note: confirm whether the reported binding signal for this sequence is below 0.09 normalized occupancy, equality not counting. sequence: AGATTGGA
Ans: Y

Q: Check if binding signal falls below 0.09 normalized occupancy for AATGGCAA .
Ans: Y

Q: Given CGGCAAGC , is recorded binding signal strictly lower than 0.09 normalized occupancy?
Ans: Y

Q: A record lists ACCCATGG . Is its binding signal below 0.09 normalized occupancy?
Ans: Y

Q: Dear reviewer, please state whether CCCCATTC has binding signal strictly beneath 0.09 normalized occupancy.
Ans: Y

Q: # check: binding signal < 0.09 normalized occupancy for CGCGTTTC
Ans: Y

Q: Lab note: confirm whether the reported binding signal for this sequence is below 0.09 normalized occupancy, equality not counting. sequence: CCCCATGC
Ans: N

Q: Please indicate whether the reported binding signal of CAATGTGG is strictly below 0.09 normalized occupancy.
Ans: N
